# SYSTEM_TESTED: WDR5 (Homo sapiens (Human))
# EXPERIMENTAL_DETAILS: TR-FRET binding assay, displacement of 10mer-Thr-FAM probe from His-tagged WDR5
# SETTINGS: Inhibition of WDR5 by TR-FRET assay
QUANTITY: pKi
FYI, pKi means -log10 of a concentration in mol per litre.

Entry `COc1ccnc(CNC(=O)c2cc(CNC(=N)N)cc(-c3ccnc(C)c3)c2)c1` ; pKi = 9.00

Entry Cc1ccnc(C(NC(=O)c2cc(CNC3=NCCC3)cc(-c3ccc(F)cc3C(F)(F)F)n2)C2CC2)c1 (stereo not drawn) ; pKi = 8.92

Entry `O=C(NCc1ccc(Cl)c(Cl)c1)c1cc(Cn2ccnc2)cc(OC2CCC2)c1` ; pKi = 9.23

Entry `COc1cc(CNC(=O)c2cc(CNC3=NCCC3)cc(-c3ccc(F)cc3C)c2)cc(OC)c1` ; pKi = 9.13

Entry COc1cc(OC)cc(C(C)NC(=O)c2cc(CNC3=NCCN3)cc(-c3ccc(F)nc3C)n2)c1 (stereo not drawn) ; pKi = 9.10

Entry `COc1ccnc(CNC(=O)c2cc(CNC3=NCCC3)cc(-c3ccc(F)cc3C(F)(F)F)n2)c1` ; pKi = 8.92
